EXPERIMENTAL_TARGET: Arginase-2, mitochondrial (Homo sapiens) (UniProt P78540)
Sequence (whole entry): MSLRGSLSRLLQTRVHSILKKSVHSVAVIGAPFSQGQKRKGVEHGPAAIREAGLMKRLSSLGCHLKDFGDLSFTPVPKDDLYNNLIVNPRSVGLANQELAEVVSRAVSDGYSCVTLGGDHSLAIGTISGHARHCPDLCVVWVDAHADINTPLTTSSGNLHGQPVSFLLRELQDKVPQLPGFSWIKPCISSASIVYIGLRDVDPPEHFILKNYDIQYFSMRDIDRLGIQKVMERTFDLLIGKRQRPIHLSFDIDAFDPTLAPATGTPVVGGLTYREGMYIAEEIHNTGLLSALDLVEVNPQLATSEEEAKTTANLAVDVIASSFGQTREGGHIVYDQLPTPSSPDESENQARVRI
RUN_DESCRIPTION: in vitro enzyme assay to detect the production of urea directly proportional to the activity of Arginase II; further: in the data most compounds retested in dose-response had high values
Assay type: functional
Set-up: scale not given: direction of the effect not stated beside the values
TEST_PARAMETERS: 33.3 µM
REPORTED_ENDPOINT: Percent Effect (%)
One number for each entry, in %.

# count of solved cases: 3
1) Cc1ccc(C(C)N(C)Cc2nc3c(cnn3C)c(=O)[nH]2)cc1 (centres undefined) | 3.88
2) Cc1cc(CN(Cc2cccs2)CC2CCCO2)no1 (centres undefined) | 4.95
3) O=C(NCc1ccccc1F)N1CCC(C2OCCO2)CC1 | -5.92

Your task in this section: give Percent Effect for each listed record.
1. CCc1ccccc1NC(=O)N1CCn2cnc(COC)c2C1
2. CN(C)C(=O)CO[C@@H]1CC[C@H]2[C@H]1OCCN2C(=O)C1CCOCC1
3. O=C(Cc1ccccc1F)N1C[C@@H]2COC[C@]2(COc2cccnc2)C1
4. Cc1cc(NC(=O)CN(C)C2CCCN(c3cccnn3)C2)n(C)n1 (centres undefined)
5. C[S+]([O-])CCCNC(=O)c1cc(Br)c2c(c1)OCCO2 (centres undefined)
6. CCN1CCN(S(=O)(=O)c2cc(C)c(Cl)cc2Cl)CC1
7. CCn1cc(N2Cc3nc(N)ncc3C2=O)cn1
8. CC(NC(N)=O)C(=O)N1CCCN(Cc2nccn2C(C)C)CC1 (centres undefined)

Result:
15.1
2.08
10.5
-1.8
48.4
1.38
-20.6
-4.09

###

EXPERIMENTAL_TARGET: Tyrosyl-tRNA synthetase, putative (Trypanosoma cruzi (strain CL Brener))
Sequence (whole entry): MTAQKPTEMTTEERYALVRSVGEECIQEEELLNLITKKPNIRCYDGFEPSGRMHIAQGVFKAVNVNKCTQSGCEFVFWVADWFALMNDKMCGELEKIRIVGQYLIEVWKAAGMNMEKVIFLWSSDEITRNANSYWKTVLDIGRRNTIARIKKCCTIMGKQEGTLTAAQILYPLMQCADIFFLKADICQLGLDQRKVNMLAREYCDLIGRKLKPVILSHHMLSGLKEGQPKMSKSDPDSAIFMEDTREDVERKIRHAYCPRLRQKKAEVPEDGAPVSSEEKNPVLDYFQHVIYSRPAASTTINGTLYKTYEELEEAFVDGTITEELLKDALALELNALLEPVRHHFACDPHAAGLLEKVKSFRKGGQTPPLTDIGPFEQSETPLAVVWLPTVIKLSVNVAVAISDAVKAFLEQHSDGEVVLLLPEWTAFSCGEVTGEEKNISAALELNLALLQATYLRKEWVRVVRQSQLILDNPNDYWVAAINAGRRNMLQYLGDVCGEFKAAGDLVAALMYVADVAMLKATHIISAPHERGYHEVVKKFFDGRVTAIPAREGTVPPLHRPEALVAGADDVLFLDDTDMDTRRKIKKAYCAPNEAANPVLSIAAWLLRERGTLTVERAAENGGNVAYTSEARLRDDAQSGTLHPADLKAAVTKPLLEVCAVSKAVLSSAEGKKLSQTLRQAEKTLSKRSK
RUN_DESCRIPTION: Trypanosoma cruzi tyrosyl tRNA synthetase (TcYRS) SOP
Type: functional
Set-up: scale not given: direction of the effect not stated beside the values
TEST_PARAMETERS: 30 µM
REPORTED_ENDPOINT: Percent Effect (%)
One number for each entry, in %.

# count of solved cases: 2
1. CC(NC1CCN(CCS(C)(=O)=O)CC1)c1ccc(Cl)cc1 (stereo not drawn) | 7.32
2. O=C1NCCCCC1Sc1nnc(-c2cccnc2)n1C1CC1 (stereo not drawn) | 12.5

Continue with the next molecule.
Q: Field request: Percent Effect | item: Cc1cc(CN2CCN(C(c3ccccc3)c3ccccc3)CC2)no1
Result: 11.4

###

EXPERIMENTAL_TARGET: Ubiquitin-activating enzyme e1, putative (Leishmania donovani (strain BPK282A1))
RUN_DESCRIPTION: Leishmania donovani Ubiquitin Activating Enzyme (LdE1)
Assay type: functional
Set-up: scale not given: direction of the effect not stated beside the values
TEST_PARAMETERS: 30 µM
Measured potencies and affinities stand elsewhere.
For each record, write down the corresponding Percent Effect.
Numbers only, in %.

Your task in this section: give Percent Effect for each listed record.
1. COCCNC(=O)CCc1c(C)nn(-c2nc(C)c(C)c(=O)[nH]2)c1C
2. Cn1cc(CN2CC[C@H]3C[C@H](c4nc(C5CC5)cs4)O[C@@H]3C2)cn1

Result:
7.79
18.2

Your task in this section: give Percent Effect for each listed record.
1. O=C1N(CCCc2ccccc2)CCCC1(O)CNCc1ccccc1 (centres undefined)
2. CCCn1ncc(CN2C[C@@H]3CCCN3C[C@@H]2CCSC)c1C

Result:
1. 2.7
2. 9.46

###

For each record, write down the corresponding Percent Effect.
EXPERIMENTAL_TARGET: Sialic acid-binding Ig-like lectin 9 (Homo sapiens)
RUN_DESCRIPTION: Hs-Siglec9 ALPHAscreen SOP 20170721
Set-up: scale not given: direction of the effect not stated beside the values
TEST_PARAMETERS: 10 µM
One number for each entry, in %.

1. COc1cccc(CCNC(=O)CN2CCN(C)CC2C)c1 (stereo not given) | -5.98
2. CCc1n[nH]c(C2CN(Cc3nnc(C4CC4)n3C)CCO2)n1 (stereo not given) | -6.88
3. Cc1ccc(CC(=O)N2CSCC2C(=O)N(C)Cc2ccco2)o1 (stereo not given) | -8.06
4. COc1ccc(OC)c(NC(=O)c2nc3ccccc3n(C)c2=O)c1 | -2.14

Continue with the next molecule.
Q: Field request: Percent Effect | item: COC(=O)c1ccc(N2CCN(C(=O)c3cc(C)on3)C(C)C2)cc1 (stereo not given)
Result: 10.2

###

For each record, write down the corresponding Percent Effect.
Species: Homo sapiens
RUN_DESCRIPTION: To identify inhibition of the IFN signalling (Jak-Stat) pathway via expression of an eGFP reporter gene under the control of an IFN-stimulated response element (ISRE) containing MxA promoter.
Type: functional
Set-up: scale not given: direction of the effect not stated beside the values
TEST_PARAMETERS: 30 µM
Give bare numbers, in %.

# count of solved cases: 3
1. Cc1cc(-c2cnc(NC3CC3)nc2-c2ccc(C)o2)on1 | 20.4
2. Cc1nc(C)n(CC2CN(CCc3ccncc3)CCO2)n1 (centres undefined) | 16.9
3. Cc1nc(C)n(C2CCCN(C(=O)Cc3n[nH]c4ccccc34)C2)n1 (centres undefined) | 5.91

Q: Field request: Percent Effect | item: Cc1noc(CCCC(=O)NC(C)c2cn(-c3ccccc3)nn2)n1 (centres undefined)
Result: -19.3

###

EXPERIMENTAL_TARGET: Ubiquitin-activating enzyme e1, putative (Leishmania donovani (strain BPK282A1)) (UniProt E9BSI1)
Sequence (E9BSI1 as listed by the source): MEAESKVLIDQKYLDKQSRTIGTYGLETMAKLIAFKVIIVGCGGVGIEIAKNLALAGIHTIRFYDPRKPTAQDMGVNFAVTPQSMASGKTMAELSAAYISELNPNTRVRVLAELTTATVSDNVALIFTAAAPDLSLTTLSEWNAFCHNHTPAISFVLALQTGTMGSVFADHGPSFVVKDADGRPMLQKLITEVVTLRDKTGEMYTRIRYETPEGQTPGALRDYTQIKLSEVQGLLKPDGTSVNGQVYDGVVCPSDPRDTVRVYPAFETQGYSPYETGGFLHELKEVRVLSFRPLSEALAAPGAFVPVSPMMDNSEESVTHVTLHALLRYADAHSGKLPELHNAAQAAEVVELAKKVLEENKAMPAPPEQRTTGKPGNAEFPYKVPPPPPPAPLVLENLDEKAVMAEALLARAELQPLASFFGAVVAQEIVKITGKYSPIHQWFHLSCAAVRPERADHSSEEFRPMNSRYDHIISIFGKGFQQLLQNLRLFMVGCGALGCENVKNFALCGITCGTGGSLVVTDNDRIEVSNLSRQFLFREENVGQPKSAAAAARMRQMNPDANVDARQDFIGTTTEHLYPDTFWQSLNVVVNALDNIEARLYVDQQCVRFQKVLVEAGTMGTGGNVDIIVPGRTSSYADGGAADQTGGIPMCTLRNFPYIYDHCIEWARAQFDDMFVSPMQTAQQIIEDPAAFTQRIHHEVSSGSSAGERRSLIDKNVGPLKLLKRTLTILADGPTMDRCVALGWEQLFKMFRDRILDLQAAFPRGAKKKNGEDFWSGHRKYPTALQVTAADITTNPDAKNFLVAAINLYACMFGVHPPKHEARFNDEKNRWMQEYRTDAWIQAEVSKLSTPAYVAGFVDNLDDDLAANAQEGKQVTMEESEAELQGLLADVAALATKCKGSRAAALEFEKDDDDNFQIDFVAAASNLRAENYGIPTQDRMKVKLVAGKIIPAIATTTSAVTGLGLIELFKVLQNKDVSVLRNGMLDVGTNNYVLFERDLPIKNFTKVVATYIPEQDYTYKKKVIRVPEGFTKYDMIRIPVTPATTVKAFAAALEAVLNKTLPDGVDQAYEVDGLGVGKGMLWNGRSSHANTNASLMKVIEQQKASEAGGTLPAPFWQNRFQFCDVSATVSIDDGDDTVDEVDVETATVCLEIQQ
RUN_DESCRIPTION: Leishmania donovani Ubiquitin Activating Enzyme (LdE1)
Assay type: functional
Parameters: scale not given: direction of the effect not stated beside the values
TEST_PARAMETERS: 30 µM
Results with a measured potency or affinity are listed apart.
REPORTED_ENDPOINT: Percent Effect (%)
Answers are plain numbers, in %.

1. COc1ccccc1OC1(C(=O)O)CCN(c2nccnc2C)CC1 | 5.48

Your task in this section: give Percent Effect for each listed record.
1. COCCN1CCCC(O)(CN2CCN(c3ncccc3C)CC2)C1=O (stereo unspecified)
2. Cc1nc(CCCNC(=O)C2CC(=O)N(C(C)(C)C)C2)sc1C (stereo unspecified)
3. CC(=O)N1CCC[C@H]1C(=O)NCCOc1cccc(Cl)c1
4. CCc1nc(CN2CCCN(C(=O)C(C)n3ccnc3)CC2)cs1 (stereo unspecified)

Result:
1. -27
2. 5.48
3. 7.79
4. 5.2

Your task in this section: give Percent Effect for each listed record.
1. Cc1ccsc1CNC(=O)Cc1c(C)nc2c(c1C)c(=O)[nH]n2C
2. CNc1nc(CNC(=O)Nc2cccc(F)c2C)cs1
3. NC(=O)C1CCN(C(=O)Cn2nc(-c3ccccc3)oc2=O)C1 (stereo unspecified)
4. CS(=O)(=O)NC[C@]12COC[C@H]1CN(C(=O)Cc1ccccc1F)C2

Result:
10.4
-2.63
7.79
-101

Your task in this section: give Percent Effect for each listed record.
1. CNc1cc(CNC(=O)c2ccccc2)nc(-c2ccncc2)n1
2. CCOc1cc(C)nc(N2CCN(C(=O)c3ccc[nH]3)CC2)n1
3. Cc1cc(C)n(C2CCCN(C(=O)c3cnc4onc(C)c4c3)C2)n1 (stereo unspecified)
4. O=C(NCC(O)c1ccc(F)c(F)c1)c1cccnc1OCC(F)(F)F (stereo unspecified)
5. CS(=O)(=O)N1CCc2c(cccc2NC(=O)CC(F)(F)F)C1
6. CN(Cc1ccc(F)cc1)C(=O)CN1CCOC(Cn2cncn2)C1 (stereo unspecified)
7. CCC(O)CN1CCN(C(=O)c2cccn2Cc2cccs2)CC1 (stereo unspecified)

Result:
[9.46, 2.7, 5.2, 19.2, 5.26, 17.7, 5.06]
